The values you see were collected from ChEMBL document CHEMBL4402510.

System: Pseudomonas aeruginosa
Experiment: Antibacterial activity against Pseudomonas aeruginosa YY165
Format: functional
Listed here: items and their measured MIC.
Enter your answer as a number in µg/mL; do not include the unit.

compound_structure_string	study_target	unit	MIC
CCCCCCCCC(CCCCCCCC)C(=O)N[C@@H]1CCN[C@@H]([C@H](O[C@@H]2O[C@H](CN)[C@@H](O)[C@H]2O)[C@H]2O[C@@H](n3ccc(=O)[nH]c3=O)[C@H](O)[C@@H]2O)C1	Pseudomonas aeruginosa	µg/mL	16
CCCCCCCCCCCCCCCC(=O)N[C@@H]1CCN[C@@H]([C@H](O[C@@H]2O[C@H](CN)[C@@H](O)[C@H]2O)[C@H]2O[C@@H](n3ccc(=O)[nH]c3=O)[C@H](O)[C@@H]2O)C1	Pseudomonas aeruginosa	µg/mL	32

What does the data say about its MIC? Entry: CCCCCCCCCCCCCCCC(=O)N[C@H]1CCN[C@H]([C@H](O[C@@H]2O[C@H](CN)[C@@H](O)[C@H]2O)[C@H]2O[C@@H](n3ccc(=O)[nH]c3=O)[C@H](O)[C@@H]2O)C1
32
